I'd be grateful if you could share measured concentration at 2010 calendar year for these entries.
test: PCB concentrations in plasma of HELPcB participants (2010); format: in vivo, human; details: human, plasma, other: occupational exposure, HELPcB participant six, sample of 2010
The reply should contain only the number, in ng/mL.

Report concentration at 2010 calendar year for "Clc1ccc(Cl)c(-c2cc(Cl)c(Cl)cc2Cl)c1" please.
0.227

Report concentration at 2010 calendar year for "Clc1ccc(Cl)c(-c2cc(Cl)ccc2Cl)c1" please.
0.043

Report concentration at 2010 calendar year for "Clc1cc(Cl)c(-c2cc(Cl)c(Cl)c(Cl)c2Cl)cc1Cl" please.
8.85

Report concentration at 2010 calendar year for "Clc1ccc(-c2ccc(Cl)cc2Cl)cc1" please.
0.309

----------
assay: PCB concentrations in plasma of HELPcB participants (2010); assay type: in vivo, human; conditions: human, plasma, other: occupational exposure, HELPcB participant one, sample of 2010
I'd be grateful if you could share measured concentration at 2010 calendar year of sampling for these entries.
The reply should contain only the number, in ng/mL.

Report concentration at 2010 calendar year of sampling for Clc1ccc(Cl)c(-c2cc(Cl)ccc2Cl)c1 [PCB52, 2,2′,5,5′-tetrachlorobiphenyl] please.
0.348

Report concentration at 2010 calendar year of sampling for Clc1cc(Cl)c(-c2cc(Cl)c(Cl)c(Cl)c2Cl)cc1Cl [PCB180] please.
0.998

Report concentration at 2010 calendar year of sampling for Clc1ccc(Cl)c(-c2cc(Cl)c(Cl)cc2Cl)c1 [PCB101, 2,2′,4,5,5′-pentachlorobiphenyl] please.
0.519

Report concentration at 2010 calendar year of sampling for Clc1ccc(-c2ccc(Cl)cc2Cl)cc1 [PCB28, 2,4,4′-trichlorobiphenyl] please.
2.69

----------
I'd be grateful if you could share measured Quantification of metabolites generated from PCB28, 52, and 101 for these entries.
biological target: CYP2A6 (Homo sapiens, UniProt P11509); assay: Metabolism in transgenic HEK293 cells expressing CYP2A6; type: in vitro ADME; set-up: V5-His (vector-encoded) (C); expressed in transfected cells; conditions: CYP2A6 Clone C4; 20 µM parent PCB, 24 h, supernatant
Sequence (P11509 whole entry): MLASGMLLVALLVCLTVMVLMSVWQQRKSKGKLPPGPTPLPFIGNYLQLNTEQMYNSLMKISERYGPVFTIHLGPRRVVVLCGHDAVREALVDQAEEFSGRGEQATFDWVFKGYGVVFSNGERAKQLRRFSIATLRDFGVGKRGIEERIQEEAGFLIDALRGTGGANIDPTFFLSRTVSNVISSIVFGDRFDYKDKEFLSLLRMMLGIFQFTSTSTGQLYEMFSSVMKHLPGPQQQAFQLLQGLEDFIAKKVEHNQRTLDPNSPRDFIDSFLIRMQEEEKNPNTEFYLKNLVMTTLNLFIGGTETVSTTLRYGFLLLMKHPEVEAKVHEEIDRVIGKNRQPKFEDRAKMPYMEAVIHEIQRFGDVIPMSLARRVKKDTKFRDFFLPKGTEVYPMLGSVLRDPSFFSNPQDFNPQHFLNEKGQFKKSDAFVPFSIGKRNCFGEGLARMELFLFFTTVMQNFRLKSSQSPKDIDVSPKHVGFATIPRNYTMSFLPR

Report Quantification of metabolites generated from PCB28, 52, and 101 for "Oc1cc(Cl)c(-c2cc(Cl)c(Cl)cc2Cl)cc1Cl" please.
272,55 nM

Report Quantification of metabolites generated from PCB28, 52, and 101 for "Oc1cc(Cl)c(-c2ccc(Cl)cc2)cc1Cl" please.
0,63 nM

Report Quantification of metabolites generated from PCB28, 52, and 101 for "Oc1cc(Cl)c(-c2cc(Cl)ccc2Cl)cc1Cl" please.
1029,16 nM

Report Quantification of metabolites generated from PCB28, 52, and 101 for "Oc1cc(-c2ccc(Cl)cc2)c(Cl)cc1Cl" please.
1,33 nM

Report Quantification of metabolites generated from PCB28, 52, and 101 for "Oc1cc(Cl)cc(-c2cc(Cl)c(Cl)cc2Cl)c1Cl" please.
24,09 nM

Report Quantification of metabolites generated from PCB28, 52, and 101 for "Oc1cc(Cl)cc(-c2cc(Cl)ccc2Cl)c1Cl" please.
0,75 nM

----------
biological target: CYP3A4 (Homo sapiens, UniProt P08684); test: Metabolism in transgenic HEK293 cells expressing CYP3A4; conditions: CYP3A4 Clone B4; 20 µM parent PCB, 24 h, supernatant
Sequence (P08684 whole entry): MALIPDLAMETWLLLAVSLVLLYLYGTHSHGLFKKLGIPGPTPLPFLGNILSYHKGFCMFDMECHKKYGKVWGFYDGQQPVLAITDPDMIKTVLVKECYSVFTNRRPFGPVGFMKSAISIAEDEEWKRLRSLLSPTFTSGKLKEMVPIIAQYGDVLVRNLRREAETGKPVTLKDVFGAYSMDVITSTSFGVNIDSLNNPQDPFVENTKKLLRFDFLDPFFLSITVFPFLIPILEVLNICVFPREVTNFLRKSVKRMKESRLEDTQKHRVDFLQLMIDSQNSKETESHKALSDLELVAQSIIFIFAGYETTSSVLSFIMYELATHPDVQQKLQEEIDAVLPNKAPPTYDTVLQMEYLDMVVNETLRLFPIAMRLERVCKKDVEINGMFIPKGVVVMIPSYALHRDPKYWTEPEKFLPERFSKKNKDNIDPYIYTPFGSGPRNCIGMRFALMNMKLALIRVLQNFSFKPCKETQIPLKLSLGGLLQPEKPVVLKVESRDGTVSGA
test_readout: Quantification of metabolites generated from PCB28, 52, and 101

Oc1cc(-c2ccc(Cl)cc2)c(Cl)cc1Cl; <LOQ
Oc1cc(Cl)c(-c2cc(Cl)ccc2Cl)cc1Cl; 0,23 nM
Oc1cc(Cl)c(-c2ccc(Cl)cc2)cc1Cl; <LOQ
Oc1cc(Cl)cc(-c2cc(Cl)ccc2Cl)c1Cl; 0,21 nM

Values were extracted from paper PMC11489226.
